# credit: ChEMBL document CHEMBL1124840

species on record: Oryctolagus cuniculus; test: Contractile activity in rabbit aortic rings relative to angiotensin II.; type: functional, Aorta
Positions of bridges follow the written chain, without caps; N, C: chain ends. Non-standard residues stand in square brackets, D forms with d. Residues, ends and D or L forms follow the SMILES beside them. Pen = CC(C)(S)[C@H](N)C(=O)O; hCys = N[C@@H](CCS)C(=O)O
What Relative potency was measured for each of the following?
Give bare numbers.

The following molecules have reported results that may help.
| MOLECULE | Relative potency |
| --- | --- |
| CC1(C)SSC[C@@H](C(=O)N[C@@H](Cc2c[nH]cn2)C(=O)N2CCC[C@H]2C(=O)N[C@@H](Cc2ccccc2)C(=O)O)NC(=O)[C@H](Cc2ccc(O)cc2)NC(=O)[C@H]1NC(=O)[C@H](CCCN=C(N)N)NC(=O)[C@@H](N)CC(=O)O (H-DR[Pen]YCHPF-OH; disulfide 3-5) | 0.0001 |
| CC1(C)SSC[C@H](NC(=O)[C@H](CCCN=C(N)N)NC(=O)[C@@H](N)CC(=O)O)C(=O)N[C@@H](Cc2ccc(O)cc2)C(=O)N[C@@H]1C(=O)N[C@@H](Cc1c[nH]cn1)C(=O)N1CCC[C@H]1C(=O)N[C@@H](Cc1ccccc1)C(=O)O (H-DRCY[Pen]HPF-OH; disulfide 3-5) | 0.001 |
| NC(N)=NCCC[C@H](NC(=O)[C@@H](N)CC(=O)O)C(=O)N[C@H]1CCSSC[C@@H](C(=O)N[C@@H](Cc2c[nH]cn2)C(=O)N2CCC[C@H]2C(=O)N[C@@H](Cc2ccccc2)C(=O)O)NC(=O)[C@H](Cc2ccc(O)cc2)NC1=O (H-DR[hCys]YCHPF-OH; disulfide 3-5) | 0.001 |
| CC1(C)SSC(C)(C)[C@@H](C(=O)N[C@@H](Cc2c[nH]cn2)C(=O)N2CCC[C@H]2C(=O)N[C@@H](Cc2ccccc2)C(=O)O)NC(=O)[C@H](Cc2ccc(O)cc2)NC(=O)[C@H]1NC(=O)[C@H](CCCN=C(N)N)NC(=O)[C@@H](N)CC(=O)O (H-DR[Pen]Y[Pen]HPF-OH; disulfide 3-5) | 0.0001 |
| NC(N)=NCCC[C@H](NC(=O)[C@@H](N)CC(=O)O)C(=O)N[C@H]1CSSCC[C@@H](C(=O)N[C@@H](Cc2c[nH]cn2)C(=O)N2CCC[C@H]2C(=O)N[C@@H](Cc2ccccc2)C(=O)O)NC(=O)[C@H](Cc2ccc(O)cc2)NC1=O (H-DRCY[hCys]HPF-OH; disulfide 3-5) | 0.012 |

NC(N)=NCCC[C@H](NC(=O)[C@@H](N)CC(=O)O)C(=O)N[C@H]1CCSSCC[C@@H](C(=O)N[C@@H](Cc2c[nH]cn2)C(=O)N2CCC[C@H]2C(=O)N[C@@H](Cc2ccccc2)C(=O)O)NC(=O)[C@H](Cc2ccc(O)cc2)NC1=O (H-DR[hCys]Y[hCys]HPF-OH; disulfide 3-5) yielded Relative potency of 0.49
